Hello, the source for this data is patent US20250034147A1, in case you need it.

- measured.on: HiBiT-tagged MDM2 (Homo sapiens, UniProt Q00987)
- Construct: expressed in transfected cells
- Sequence (Q00987 whole entry): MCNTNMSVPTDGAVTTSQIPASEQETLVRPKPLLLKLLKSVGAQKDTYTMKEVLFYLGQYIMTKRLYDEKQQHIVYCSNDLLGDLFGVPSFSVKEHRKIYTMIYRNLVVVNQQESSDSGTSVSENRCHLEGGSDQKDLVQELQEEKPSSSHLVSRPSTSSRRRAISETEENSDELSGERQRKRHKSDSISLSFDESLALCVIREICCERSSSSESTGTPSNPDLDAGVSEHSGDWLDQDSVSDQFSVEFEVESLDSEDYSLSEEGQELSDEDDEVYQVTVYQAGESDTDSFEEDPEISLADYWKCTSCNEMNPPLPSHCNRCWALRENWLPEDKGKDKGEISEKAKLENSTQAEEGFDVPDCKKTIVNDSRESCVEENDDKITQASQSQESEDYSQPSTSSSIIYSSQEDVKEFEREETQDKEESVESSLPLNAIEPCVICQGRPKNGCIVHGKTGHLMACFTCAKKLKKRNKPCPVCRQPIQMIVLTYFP
- assay.summary: MDM2 HiBit HEK293T degradation
- Type: cell-based
- test.settings: HEK293T cells stably expressing C-terminally HiBiT-tagged MDM2; 4 h; read-out: MDM2 HiBit HEK293T degradation 4 h: Average external-Abs DC50
DC50 values for the molecules below.

1) COc1cc2c(cc1OC(C)C)[C@H](c1ccc(Cl)cc1)N(c1ccc(N(C)CC3CCN(c4ccc5c(c4)n(C)c(=O)n5C4CCC(=O)NC4=O)CC3)cc1)C(=O)C2 (stereo partly drawn) ... < 10 nM
2) Cn1c(=O)n(C2CCC(=O)NC2=O)c2ccc(N3CCC(CC4(C(=O)O)CCN(C[C@H]5CC[C@H](NC(=O)[C@@H]6NC7(CCCCC7)[C@@]7(C(=O)Nc8cc(Cl)ccc87)[C@H]6c6cccc(Cl)c6F)CC5)CC4)CC3)cc21 (stereo partly drawn) ... < 10 nM

Data request: Which DC50 value belongs to Cn1c(=O)n(C2CCC(=O)NC2=O)c2ccc(O[C@@H]3C[C@@H](C(=O)O)N(C(=O)[C@H]4CC[C@H](NC(=O)[C@@H]5NC6(CCCCC6)[C@@]6(C(=O)Nc7cc(Cl)ccc76)[C@H]5c5cccc(Cl)c5F)CC4)C3)cc21 (stereo partly drawn) ?
Data returned: 10 to 100 nM
